Listed next: entries and their corresponding PC-3 flu Tumor.
System: PC-3 PIP/flu tumor-bearing mice
procedure-summary: Biodistribution studies in PC-3 PIP/flu tumor-bearing mice
measurement-conditions: 192 h p.i.

>>> measured_value("O=C(O)CCC(NC(=O)NC(CCCCNC(=O)C(Cc1ccc2ccccc2c1)NC(=O)C1CCC(CNC(=O)C(CCCCNC(=O)CN2CCN(CC(=O)O)CCN(CC(=O)O)CCN(CC(=O)O)CC2)NC(=O)CCCCCCC(=O)NC(CCCCNC(=O)CCCc2ccc(I)cc2)C(=O)O)CC1)C(=O)O)C(=O)O (stereo not shown) [^177Lu-PSMA-ALB-04, metal not drawn]")
"3.31 ± 1.43 % IA/g"
>>> measured_value("O=C(O)CCC(NC(=O)NC(CCCCNC(=O)C(Cc1ccc2ccccc2c1)NC(=O)C1CCC(n2cc(CC(NC(=O)CN3CCN(CC(=O)O)CCN(CC(=O)O)CCN(CC(=O)O)CC3)C(=O)NC(CCCCNC(=O)CCCc3ccc(I)cc3)C(=O)O)nn2)CC1)C(=O)O)C(=O)O (stereo not shown) [^177Lu-PSMA-ALB-01, metal not drawn]")
"2.73 ± 0.84 % IA/g"
>>> measured_value("O=C(O)CCC(NC(=O)NC(CCCCNC(=O)C(Cc1ccc2ccccc2c1)NC(=O)C1CCC(CNC(=O)C(CCCCNC(=O)CN2CCN(CC(=O)O)CCN(CC(=O)O)CCN(CC(=O)O)CC2)NC(=O)CC(NC(=O)CC(NC(=O)CCCc2ccc(I)cc2)C(=O)O)C(=O)O)CC1)C(=O)O)C(=O)O (stereo not shown) [^177Lu-PSMA-ALB-05, metal not drawn]")
"0.45 ± 0.06 % IA/g"

Now for a further molecule.
// fetch PC-3 PIP/flu tumor-bearing mice PC-3 flu Tumor for O=C(O)CCC(NC(=O)NC(CCCCNC(=O)C(Cc1ccc2ccccc2c1)NC(=O)C1CCC(CNC(=O)C(CCCCNC(=O)CCCc2ccc(I)cc2)NC(=O)CN2CCN(CC(=O)O)CCN(CC(=O)O)CCN(CC(=O)O)CC2)CC1)C(=O)O)C(=O)O (stereo not shown) [^177Lu-PSMA-ALB-03, metal not drawn]
2.42 ± 0.23 % IA/g

---

System: PC-3 PIP/flu tumor-bearing mice
procedure-summary: Biodistribution studies in PC-3 PIP/flu tumor-bearing mice
measurement-conditions: 1 h p.i.; PC-3 PIP tumor
Listed next: entries and their corresponding Tumor-to-blood.
# respond with the number and nothing more

The examples below pair each entry with its known result.
>>> measured_value("O=C(O)CCC(NC(=O)NC(CCCCNC(=O)C(Cc1ccc2ccccc2c1)NC(=O)C1CCC(CNC(=O)C(CCCCNC(=O)CN2CCN(CC(=O)O)CCN(CC(=O)O)CCN(CC(=O)O)CC2)NC(=O)CCCCCCC(=O)NC(CCCCNC(=O)CCCc2ccc(I)cc2)C(=O)O)CC1)C(=O)O)C(=O)O (stereo not drawn) [^177Lu-PSMA-ALB-04, metal not drawn]")
0.20
>>> measured_value("O=C(O)CCC(NC(=O)NC(CCCCNC(=O)C(Cc1ccc2ccccc2c1)NC(=O)C1CCC(n2cc(CC(NC(=O)CN3CCN(CC(=O)O)CCN(CC(=O)O)CCN(CC(=O)O)CC3)C(=O)NC(CCCCNC(=O)CCCc3ccc(I)cc3)C(=O)O)nn2)CC1)C(=O)O)C(=O)O (stereo not drawn) [^177Lu-PSMA-ALB-01, metal not drawn]")
0.30
>>> measured_value("O=C(O)CCC(NC(=O)NC(CCCCNC(=O)C(Cc1ccc2ccccc2c1)NC(=O)C1CCC(CNC(=O)C(CCCCNC(=O)CCCc2ccc(I)cc2)NC(=O)CN2CCN(CC(=O)O)CCN(CC(=O)O)CCN(CC(=O)O)CC2)CC1)C(=O)O)C(=O)O (stereo not drawn) [^177Lu-PSMA-ALB-03, metal not drawn]")
0.31

For the compound shown here, Cc1ccc(CCCC(=O)NCCCCC(NC(=O)CN2CCN(CC(=O)O)CCN(CC(=O)O)CCN(CC(=O)O)CC2)C(=O)NCC2CCC(C(=O)NC(Cc3ccc4ccccc4c3)C(=O)NCCCCC(NC(=O)NC(CCC(=O)O)C(=O)O)C(=O)O)CC2)cc1 (stereo not drawn) [44Sc-PSMA-ALB-06, metal not drawn] , give the reported Tumor-to-blood.
0.94

For the compound shown here, Cc1ccc(CCCC(=O)NCCCC[C@H](NC(=O)CCC(C(=O)O)N2CCN(CC(=O)O)CCN(CC(=O)O)CC2)C(=O)NC[C@H]2CC[C@H](C(=O)N[C@H](Cc3ccc4ccccc4c3)C(=O)NCCCC[C@@H](NC(=O)N[C@H](CCC(=O)O)C(=O)O)C(=O)O)CC2)cc1 (stereo partly drawn) [^64Cu-PSMA-ALB-89, metal not drawn] , give the reported Tumor-to-blood.
0.91

For the compound shown here, O=C(O)CCC(NC(=O)NC(CCCCNC(=O)C(Cc1ccc2ccccc2c1)NC(=O)C1CCC(CNC(=O)C(CCCCNC(=O)CN2CCN(CC(=O)O)CCN(CC(=O)O)CCN(CC(=O)O)CC2)NC(=O)CC(NC(=O)CC(NC(=O)CCCc2ccc(I)cc2)C(=O)O)C(=O)O)CC1)C(=O)O)C(=O)O (stereo not drawn) [^177Lu-PSMA-ALB-05, metal not drawn] , give the reported Tumor-to-blood.
2.31

---

Tested on: PC-3 PIP/flu tumor-bearing mice
procedure-summary: Biodistribution studies in PC-3 PIP/flu tumor-bearing mice
measurement-conditions: 4 h p.i.
quantity-measured: Lung
I'd appreciate it if you wrote the number followed by its unit.

The examples below pair each entry with its known result.
>>> measured_value("O=C(O)CCC(NC(=O)NC(CCCCNC(=O)C(Cc1ccc2ccccc2c1)NC(=O)C1CCC(CNC(=O)C(CCCCNC(=O)CN2CCN(CC(=O)O)CCN(CC(=O)O)CCN(CC(=O)O)CC2)NC(=O)CC(NC(=O)CC(NC(=O)CC(NC(=O)CCCc2ccc(I)cc2)C(=O)O)C(=O)O)C(=O)O)CC1)C(=O)O)C(=O)O (stereo not shown) [^177Lu-PSMA-ALB-07, metal not drawn]")
"4.67 ± 0.92 % IA/g"
>>> measured_value("O=C(O)CCC(NC(=O)NC(CCCCNC(=O)C(Cc1ccc2ccccc2c1)NC(=O)C1CCC(CNC(=O)C(CCCCNC(=O)CN2CCN(CC(=O)O)CCN(CC(=O)O)CCN(CC(=O)O)CC2)NC(=O)CC(NC(=O)CC(NC(=O)CCCc2ccc(I)cc2)C(=O)O)C(=O)O)CC1)C(=O)O)C(=O)O (stereo not shown) [^177Lu-PSMA-ALB-05, metal not drawn]")
"7.07 ± 1.44 % IA/g"
>>> measured_value("Cc1ccc(CCCC(=O)NCCCCC(NC(=O)CN2CCN(CC(=O)O)CCN(CC(=O)O)CCN(CC(=O)O)CC2)C(=O)NCC2CCC(C(=O)NC(Cc3ccc4ccccc4c3)C(=O)NCCCCC(NC(=O)NC(CCC(=O)O)C(=O)O)C(=O)O)CC2)cc1 (stereo not shown) [^177Lu-PSMA-ALB-06, metal not drawn]")
"9.40 ± 1.55 % IA/g"

Now for a further compound.
For the compound shown here, Cc1ccc(CCCC(=O)NC(CC(=O)NC(CC(=O)NC(CC(=O)NC(CCCCNC(=O)CN2CCN(CC(=O)O)CCN(CC(=O)O)CCN(CC(=O)O)CC2)C(=O)NCC2CCC(C(=O)NC(Cc3ccc4ccccc4c3)C(=O)NCCCCC(NC(=O)NC(CCC(=O)O)C(=O)O)C(=O)O)CC2)C(=O)O)C(=O)O)C(=O)O)cc1 (stereo not shown) [^177Lu-PSMA-ALB-08, metal not drawn] , give the reported Lung.
0.48 ± 0.21 % IA/g

---

System: PC-3 PIP/flu tumor-bearing mice
procedure-summary: Biodistribution studies in PC-3 PIP/flu tumor-bearing mice
measurement-conditions: 24 h p.i.
Rule: PC-3 PIP Tumor of 50 % IA/g or more gives T; anything lower gives F.

>>> cat("O=C(O)CCC(NC(=O)NC(CCCCNC(=O)C(Cc1ccc2ccccc2c1)NC(=O)C1CCC(n2cc(CC(NC(=O)CN3CCN(CC(=O)O)CCN(CC(=O)O)CCN(CC(=O)O)CC3)C(=O)NC(CCCCNC(=O)CCCc3ccc(I)cc3)C(=O)O)nn2)CC1)C(=O)O)C(=O)O (centres unmarked) [^177Lu-PSMA-ALB-01, metal not drawn]")
"F"

Could you tell me if the measured PC-3 PIP Tumor of O=C(O)CCC(NC(=O)NC(CCCCNC(=O)C(Cc1ccc2ccccc2c1)NC(=O)C1CCC(CNC(=O)C(CCCCNC(=O)CN2CCN(CC(=O)O)CCN(CC(=O)O)CCN(CC(=O)O)CC2)NC(=O)CCCCCCC(=O)NC(CCCCNC(=O)CCCc2ccc(I)cc2)C(=O)O)CC1)C(=O)O)C(=O)O (centres unmarked) [^177Lu-PSMA-ALB-04, metal not drawn] reaches 50 % IA/g or more?
T

Could you tell me if the measured PC-3 PIP Tumor of Cc1ccc(CCCC(=O)NCCCCC(NC(=O)CN2CCN(CC(=O)O)CCN(CC(=O)O)CCN(CC(=O)O)CC2)C(=O)NCC2CCC(C(=O)NC(Cc3ccc4ccccc4c3)C(=O)NCCCCC(NC(=O)NC(CCC(=O)O)C(=O)O)C(=O)O)CC2)cc1 (centres unmarked) [^177Lu-PSMA-ALB-06, metal not drawn] reaches 50 % IA/g or more?
T

All values here come from patent US11629201B2.
